What recombinant UMI read abundance (log10) was measured for each of the following?
test: recombinant UMI read abundance after kanamycin selection (control-corrected) (log10(CPM+1)); higher = more efficient recombination; extreme values may be limits of the assay; sequences stand for … in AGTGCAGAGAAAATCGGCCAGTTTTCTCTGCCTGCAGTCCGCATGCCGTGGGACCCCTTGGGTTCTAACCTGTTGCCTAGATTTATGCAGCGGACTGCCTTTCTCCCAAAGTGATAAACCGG…AGGTTGGTTTCACT; site = the 11-nt donor;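 note: IS621 bridge recombinase in Escherichia coli cells against a fixed T5 target plasmid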

Prompt line: // returns reported recombinant UMI read abundance (log10) for input GAATGGCCATGGACCGGTTTTCCCGGTAATCCGTATTTGCA (site GAATGCCCTTG)
Response line: 0.0091

Prompt line: // returns reported recombinant UMI read abundance (log10) for input ATCAATACATGGACCGGTTTTCCCGGTAATCCGTATTTGAC (site ATCAATACTGT)
Response line: 1.74

Prompt line: // returns reported recombinant UMI read abundance (log10) for input GCTAGCCCATGGACCGGTTTTCCCGGTAATCCGTATTTGAT (site GCTTGCCCTAT)
Response line: 0.00951

Prompt line: // returns reported recombinant UMI read abundance (log10) for input ATGTAGGCATGGACCGGTTTTCCCGGTAATCCGTATTTGGA (site ATGTAGGCTAC)
Response line: 0.451

Prompt line: // returns reported recombinant UMI read abundance (log10) for input TAGAATACATGGACCGGTTTTCCCGGTAATCCGTATTTGCA (site TAGAATACTAG)
Response line: 0

Prompt line: // returns reported recombinant UMI read abundance (log10) for input GTAGTCGCATGGACCGGTTTTCCCGGTAATCCGTATTTGAG (site GTAGTCGCTCT)
Response line: 1.5

Prompt line: // returns reported recombinant UMI read abundance (log10) for input CGGAATACATGGACCGGTTTTCCCGGTAATCCGTATTTGTT (site CGGAATCCTAA)
Response line: 0

Prompt line: // returns reported recombinant UMI read abundance (log10) for input CGATCATCATGGACCGGTTTTCCCGGTAATCCGTATTTGCT (site CAATCATCTAT)
Response line: 0

Prompt line: // returns reported recombinant UMI read abundance (log10) for input GACAACCCATGGACCGGTTTTCCCGGTAATCCGTATTTGGT (site GACAAGCCTAC)
Response line: 0.00882

Prompt line: // returns reported recombinant UMI read abundance (log10) for input ACATTACCATGGACCGGTTTTCCCGGTAATCCGTATTTGCA (site ACATTACCTTG)
Response line: 0

Prompt line: // returns reported recombinant UMI read abundance (log10) for input CGGGAGTCATGGACCGGTTTTCCCGGTAATCCGTATTTGCC (site CGGGAGGCTGG)
Response line: 0.103

Prompt line: // returns reported recombinant UMI read abundance (log10) for input ACTAGTACATGGACCGGTTTTCCCGGTAATCCGTATTTGAG (site ACTAGCACTCT)
Response line: 0.0245

Prompt line: // returns reported recombinant UMI read abundance (log10) for input TCCCACCCATGGACCGGTTTTCCCGGTAATCCGTATTTGAT (site TCCCACCCTAT)
Response line: 0.0298

Prompt line: // returns reported recombinant UMI read abundance (log10) for input TCCTAGCCATGGACCGGTTTTCCCGGTAATCCGTATTTGTA (site TCCTAGCCTTA)
Response line: 0.0223

Prompt line: // returns reported recombinant UMI read abundance (log10) for input CTGTTGCCATGGACCGGTTTTCCCGGTAATCCGTATTTGAC (site CTGTTGCCTGT)
Response line: 0

Prompt line: // returns reported recombinant UMI read abundance (log10) for input GGACTCACATGGACCGGTTTTCCCGGTAATCCGTATTTGTG (site GGACTCACTCA)
Response line: 0.00312

Prompt line: // returns reported recombinant UMI read abundance (log10) for input GCTGCTGCATGGACCGGTTTTCCCGGTAATCCGTATTTGCC (site GCTACTGCTGG)
Response line: 0.315

Prompt line: // returns reported recombinant UMI read abundance (log10) for input GGTCCAACATGGACCGGTTTTCCCGGTAATCCGTATTTGTA (site GGTCGAACTTA)
Response line: 0.0172

Prompt line: // returns reported recombinant UMI read abundance (log10) for input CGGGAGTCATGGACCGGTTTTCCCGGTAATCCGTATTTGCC (site CGGGACTCTGG)
Response line: 0

Prompt line: // returns reported recombinant UMI read abundance (log10) for input ACAGCTACATGGACCGGTTTTCCCGGTAATCCGTATTTGTG (site ACAACTACTCA)
Response line: 0.815

Prompt line: // returns reported recombinant UMI read abundance (log10) for input TGATCCTCATGGACCGGTTTTCCCGGTAATCCGTATTTGCT (site CGATCATCTAG)
Response line: 0.523

Prompt line: // returns reported recombinant UMI read abundance (log10) for input GGGGCACCATGGACCGGTTTTCCCGGTAATCCGTATTTGCT (site GGGGCACCTCG)
Response line: 0.0126

Prompt line: // returns reported recombinant UMI read abundance (log10) for input TTGCTACCATGGACCGGTTTTCCCGGTAATCCGTATTTGAA (site TTGCTACCTTT)
Response line: 0.0119

Prompt line: // returns reported recombinant UMI read abundance (log10) for input GTCCATGCATGGACCGGTTTTCCCGGTAATCCGTATTTGGT (site GTGCATGCTAC)
Response line: 0.0138

Prompt line: // returns reported recombinant UMI read abundance (log10) for input GACAAACCATGGACCGGTTTTCCCGGTAATCCGTATTTGGT (site GACAAAGCTAC)
Response line: 0

Prompt line: // returns reported recombinant UMI read abundance (log10) for input CAGGAATCATGGACCGGTTTTCCCGGTAATCCGTATTTGCG (site CAGGAATCTCG)
Response line: 3.26

Prompt line: // returns reported recombinant UMI read abundance (log10) for input ATCCAAGCATGGACCGGTTTTCCCGGTAATCCGTATTTGTG (site ATCCAAGCTCG)
Response line: 1.13

Prompt line: // returns reported recombinant UMI read abundance (log10) for input GAATCGCCATGGACCGGTTTTCCCGGTAATCCGTATTTGCA (site GAATGGCCTTG)
Response line: 0.345

Prompt line: // returns reported recombinant UMI read abundance (log10) for input GGTTCCGCATGGACCGGTTTTCCCGGTAATCCGTATTTGAA (site GGTTCCGCTTT)
Response line: 0

Prompt line: // returns reported recombinant UMI read abundance (log10) for input CGGGACACATGGACCGGTTTTCCCGGTAATCCGTATTTGTC (site CGGGACACTGA)
Response line: 3.03

Prompt line: // returns reported recombinant UMI read abundance (log10) for input ATTGCGACATGGACCGGTTTTCCCGGTAATCCGTATTTGGT (site ATTGGGACTAC)
Response line: 0.456

Prompt line: // returns reported recombinant UMI read abundance (log10) for input CACTCCTCATGGACCGGTTTTCCCGGTAATCCGTATTTGCC (site CACTCTTCTGG)
Response line: 0

Prompt line: // returns reported recombinant UMI read abundance (log10) for input CCCTAGCCATGGACCGGTTTTCCCGGTAATCCGTATTTGGC (site CCCTAGCCTGA)
Response line: 0

Prompt line: // returns reported recombinant UMI read abundance (log10) for input GCTTGCCCATGGACCGGTTTTCCCGGTAATCCGTATTTGCT (site GCTTGCCCTAG)
Response line: 0.858

Prompt line: // returns reported recombinant UMI read abundance (log10) for input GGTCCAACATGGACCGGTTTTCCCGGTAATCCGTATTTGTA (site GGTCCAACTCA)
Response line: 0.0175

Prompt line: // returns reported recombinant UMI read abundance (log10) for input GTCAATCCATGGACCGGTTTTCCCGGTAATCCGTATTTGAA (site GGCAATCCTTT)
Response line: 0.51
